Items are presented alongside their recorded normalized growth.
experiment: chemical genetic growth profiling, strain panel (AID 1159580);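 also: tested at 20 µM; growth read once vehicle control cultures reached saturation at 30 °C; 1 = growth at the plate median or of vehicle wells; lower values mean less growth of the strain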; details: S. cerevisiae strains, growth OD, strain wild type, stronger effect = lower value
Among all 5,500 compounds or so, about 2,000 (36%) were called active. Another 18% or so got no clear call; they are omitted. This is one part of the list.
Reported Property: normalized growth

>>> reported_value("CC1=C(CC(=O)O)c2cc(F)ccc2/C1=C\\c1ccc(S(C)=O)cc1 (stereo not drawn)")
"1.01 (inactive)"
>>> reported_value("COc1cc2c(cc1OC)C1C(=O)c3c(cc4c(c3O)C=CC(C)(C)O4)OC1CO2 (stereo not drawn)")
"1.02 (inactive)"
>>> reported_value("C=C(C)[C@@H]1[C@H]2OC(=O)[C@@H]1[C@]1(O)C[C@H]3O[C@]34C(=O)O[C@H]2[C@]14C")
"0.981 (inactive)"
>>> reported_value("COc1ccc(NC(=O)c2cc(C(F)(F)F)cc(C(F)(F)F)c2)cn1")
"0.931 (inactive)"
>>> reported_value("CCC(=O)O[C@H]1CCC2C3CCC4=CC(=O)CC[C@]4(C)C3CC[C@@]21C (stereo partly drawn)")
"0.944 (inactive)"
>>> reported_value("CC(C[N+](C)(C)C)OC(N)=O (stereo not drawn)")
"0.994 (inactive)"
>>> reported_value("COc1cc(/C=C2\\NC(=O)NC2=O)ccc1O")
"0.948 (inactive)"
>>> reported_value("COc1cc(O)c(C(=O)/C=C/c2ccccc2)c(OC)c1")
"0.905 (inactive)"
>>> reported_value("CCN(CC)CCNC(=O)c1cc(Br)c(N)cc1OC")
"0.987 (inactive)"
>>> reported_value("C=Cc1c2[nH]c(c1C)C=c1[nH]c(c(C)c1C=C)=CC1N=C(C=c3[nH]c(c(C)c3CCC(=O)O)=C2)C(CCC(=O)O)=C1C (stereo not drawn)")
"0.972 (inactive)"
>>> reported_value("NCCSSCCN")
"1.01 (inactive)"
>>> reported_value("CC(=O)OC(C)(C)[C@@H]1Cc2cc3ccc(=O)oc3cc2O1")
"1 (inactive)"
>>> reported_value("Cc1ccc(OS(=O)(=O)c2ccc(C#N)cc2)c(Br)c1")
"0.907 (active)"
>>> reported_value("CC(=O)C1CCC2C3CC(=O)C4=CC(=O)CCC4(C)C3CCC12C (stereo not drawn)")
"0.972 (inactive)"
>>> reported_value("CCCCCCCCCCCCCCCC[N+](C)(C)C")
"0.0507 (active)"
>>> reported_value("C[N+](C)(C)CCCCCC[N+](C)(C)C")
"0.995 (inactive)"
>>> reported_value("C[C@]12CCC(=O)C=C1CCC1C2CC[C@@]2(C)C1CC[C@@H]2O (stereo partly drawn)")
"1.01 (inactive)"
>>> reported_value("C[N+](C)(C)CCOC(N)=O")
"1.01 (inactive)"
>>> reported_value("CC(=O)N[C@@H](CC(C)C)C(=O)O")
"0.999 (inactive)"
>>> reported_value("COc1ccc2c(C)cc(=O)oc2c1")
"1.01 (inactive)"
>>> reported_value("CC1=C(C(C)O)C2=NC1C=c1[nH]c(c(C)c1C(C)O)=Cc1[nH]c(c(CCC(=O)O)c1C)C=c1[nH]c(c(C)c1CCC(=O)O)=C2 (stereo not drawn)")
"0.968 (inactive)"
>>> reported_value("COc1cc2c(cc1OC)[C@@H]1C(=O)c3ccc4c(c3O[C@@H]1CO2)C=CC(C)(C)O4")
"0.984 (inactive)"
>>> reported_value("ClC1=C(Cl)C2(Cl)C3C(Cl)C=CC3C1(Cl)C2(Cl)Cl (stereo not drawn)")
"1 (inactive)"
